- experimental target: CaBbc1
- protocol: SPOT peptide array binding signal intensity (averaged, normalized) (arbitrary units (background-subtracted, floor 0; scale differs between SH3 domains)); higher = stronger binding of the SH3 domain to the peptide
Below, each entry is listed alongside its reported SPOT peptide array binding signal intensity.
value kind: SPOT peptide array binding signal intensity

* SKAKRPKFLLDLQIK | 80.8
* KWVRRPKLMTPLTFS | 192
* PSRRAPLQLPQLVNK | 279
* APKREAPKPPANTSP | 251
* PELAPKREAPKPPAN | 73.2
* LRIKRKPVQTFFEFI | 91.2
* RSKRLFPVRPMATAH | 128
* FLIKFTPKFPQSIDH | 75
* AHFQPQRTAPKPPIS | 743
* LLIRWLILMPLVGSR | 68
* APKHAPPPVPNETDN | 0.25
* AGKRRLPLVRFKASD | 259
* SKIRPTPRKPSRMAT | 806
* YRRKSIPFAPHQITA | 41.5
* GKFIPSRPAPKPPSS | 1370
* STPQTMRQAPKRPDA | 1170
* RKLRTVPGVPLIHLT | 171
* KMSRSPPRPPSLKII | 564
* YSRKKLPVVLSKMTL | 15.8
* ITHRLRISIPGITGR | 306
* SSTPTTPERPKRKSG | 2820
* DGNEEKPLLPTRPNK | 844
* LKPPIGRPPKFPKSP | 1150
* EVTPKVPERPSRRKT | 2760
* SLSRRRFSLPSMPNV | 471
